// data source = PubChem BioAssay (NCI)

- Test system: HL-60(TB) leukemia
- EXPERIMENT: NCI tumour cell line growth inhibition, 48 h

>  <COMPOUND>
CCOC(=O)C(/C=N\C(=S)Nc1c(CC)cccc1C(C)(C)C)=C(/O)c1ccccc1

>  <VALUE COMPARATOR>
>

>  <TGI (µM)>
100

$$$$
>  <COMPOUND>
COc1ccc(-c2cc(-c3ccccc3)nc(SCCCC(=O)NO)n2)cc1OC

>  <VALUE COMPARATOR>
=

>  <TGI (µM)>
11.7

$$$$
>  <COMPOUND>
O=C1OC(O)c2cc3c(cc21)OCO3 (configuration not stated)

>  <VALUE COMPARATOR>
>

>  <TGI (µM)>
100

$$$$
>  <COMPOUND>
CNCCCCN(C)/[N+]([O-])=N\O

>  <VALUE COMPARATOR>
>

>  <TGI (µM)>
100

$$$$
>  <COMPOUND>
CC(C)=[CH][Sb]([Br])([CH]=C(C)C)([CH]=C(C)C)[c]1ccccc1

>  <VALUE COMPARATOR>
=

>  <TGI (µM)>
15.6

$$$$
>  <COMPOUND>
CCOC(=O)C1CCCCN1C(=O)OCc1ccccc1 (configuration not stated)

>  <VALUE COMPARATOR>
>

>  <TGI (µM)>
100

$$$$
>  <COMPOUND>
Cc1nc2ccccn2c1N=Nc1ccc(C(=O)NN)cc1

>  <VALUE COMPARATOR>
>

>  <TGI (µM)>
100

$$$$
>  <COMPOUND>
COc1cc2c(cc1OCCCCCn1c(-c3ccc(OCc4ccccc4)cc3)nc3cc(N4CCOCC4)ccc31)N=C[C@@H]1CCCN1C2=O

>  <VALUE COMPARATOR>
>

>  <TGI (µM)>
19.9

$$$$
>  <COMPOUND>
O=C(c1ccccc1)N1CCN2CCN=C(c3ccccc3)C21c1ccccc1 (configuration not stated)

>  <VALUE COMPARATOR>
>

>  <TGI (µM)>
100

$$$$
>  <COMPOUND>
CCC[CH2][Sn]1([CH2]CCC)[O]C(=O)c2cccc(C)c2[O]1

>  <VALUE COMPARATOR>
=

>  <TGI (µM)>
1.37

$$$$
>  <COMPOUND>
CC(N)Cc1ccc(F)cc1 (configuration not stated)

>  <VALUE COMPARATOR>
>

>  <TGI (µM)>
100

$$$$
>  <COMPOUND>
CNc1ccccc1-c1nc2ccccc2c(=O)o1

>  <VALUE COMPARATOR>
>

>  <TGI (µM)>
100

$$$$
>  <COMPOUND>
c1ccc2cc(C[n+]3ccn(CCCCCCCCCCCCn4cc[n+](Cc5ccc6ccccc6c5)c4)c3)ccc2c1

>  <VALUE COMPARATOR>
=

>  <TGI (µM)>
1.08

$$$$
>  <COMPOUND>
CC(=O)Nc1ccc(S(=O)(=O)Nc2nc(-c3ccc(Cl)cc3)cc(N3N=C(c4ccc(Br)cc4)CC3c3ccccc3)n2)cc1 (configuration not stated)

>  <VALUE COMPARATOR>
=

>  <TGI (µM)>
38.1

$$$$
>  <COMPOUND>
COc1ccc(O)c(/C=N/NC(=S)N2CCCCC2)c1

>  <VALUE COMPARATOR>
>

>  <TGI (µM)>
23.1

$$$$
>  <COMPOUND>
CC(C)(C)c1ccc(C(C)(C)C)c(N2C(=O)[C@@H]3[C@@H]4C=C[C@@H](C4)[C@]3(C)C2=O)c1

>  <VALUE COMPARATOR>
=

>  <TGI (µM)>
40.4

$$$$
>  <COMPOUND>
O=C(c1nc2ccc(Cl)cc2[nH]c1=O)C(O)c1ccccc1 (configuration not stated)

>  <VALUE COMPARATOR>
=

>  <TGI (µM)>
68.8

$$$$
